Target: T1, monoclonal antibody 3C4
T1 construct: also called mAb 3C4; 3C4 (3CY)
T1 sequence (VH, as listed by the source, chain 1 of 2): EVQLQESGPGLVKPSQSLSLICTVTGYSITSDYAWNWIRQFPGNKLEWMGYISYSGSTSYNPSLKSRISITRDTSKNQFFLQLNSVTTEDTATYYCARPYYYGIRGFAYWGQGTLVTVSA
T1 sequence (VL, as listed by the source, chain 2 of 2): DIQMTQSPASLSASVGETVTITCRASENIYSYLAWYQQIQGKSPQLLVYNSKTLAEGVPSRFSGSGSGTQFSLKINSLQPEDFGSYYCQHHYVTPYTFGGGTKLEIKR
Assay: phage ELISA, coated mAb 3C4, 10^9 phagemid per well
Positions of bridges follow the written chain, without caps; N, C: chain ends. No end group written: not given here.
EXPERIMENTAL_READOUT: ELISA (absorbance units)
Lab book: enter the figure in absorbance units, no units written.

Use these answered entries as a reference point.
CSFFYSLCYCWCS (disulfide (positions not given here); also: four Cys, disulfide pairing not given here, also called CSI-31p) [phagemid CS1-31p (phage-displayed disulfide cyclized 13 mer peptide)] = 0.165
CSFRYLWDQDRCS (disulfide 1-12 (inferred); also: displayed on phage (phagemid)) [phagemid CS1-6p (phage-displayed disulfide cyclized 13 mer peptide)] = 0.664

Now look at this one.
Dear colleague, I am looking for the recorded ELISA (absorbance units) of the following binder: CSGLYPWDMFRCS (disulfide 1-12 (inferred); also: displayed on phage (phagemid)) [phagemid CS1-9p (phage-displayed disulfide cyclized 13 mer peptide)]
0.539

Sourced from patent US20140147868A1
